Item-by-item account of pKd
# subject_of_test: T1, hVEGF-A Q89A (human, UniProt P15692-4 34-135, Q89A)
# T1 construct: position probably counted on the mature protein
# T1 sequence (looked up): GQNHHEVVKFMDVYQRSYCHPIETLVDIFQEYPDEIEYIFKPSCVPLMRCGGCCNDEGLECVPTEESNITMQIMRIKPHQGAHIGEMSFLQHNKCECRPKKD
# experiment: SPR
Bear in mind: pKd is minus log10 of a mol/L concentration; give just that figure.

Give its pKd value. Item: GCNIMLPFWGCKQDSDCLAGCVCQYYQSCG (designed binder, also called EM54) [VEGF_CKP9.54]
5.73

Ok, now GCDVMQPYWGCKQDSDCLAGCVCHWYNSCG (designed binder, also called EM63) [VEGF_CKP9.63]
5.70

Quick one: GCNIMLPFWGCGRDFECLAGCVCQYYQSCG (designed binder) [VEGF_CKP9.54.90]
8.06

Same for GCDVMQPYWGCGPDIDCLAGCVCHWYNSCG (designed binder, also called L2.9.63.12) [VEGF_CKP9.63.12]
7.44
